Test: Stability analysis of DDD599/BPCA (pH buffers, simulated gastric fluid, glutathione)
Type: physicochemical
Settings: Britton Robinson pH4 buffer, pH 4; pH4 = Britton Robinson pH4
reported_property: half-life

compound: O=C(CCl)Nc1ccc(Br)cc1 [BPCA, N-(4-bromophenyl)-2-chloroacetamide]
experimental_value: > 41.7 days

====

Assay: Stability analysis of DDD599/BPCA (pH buffers, simulated gastric fluid, glutathione)
Type: physicochemical
Conditions: Britton Robinson pH6 buffer + 20M% H2O2, pH 6; pH6 Ox
reported_property: remaining at 24 h (%)

compound: O=C(CCl)Nc1ccc(Br)cc1 [BPCA, N-(4-bromophenyl)-2-chloroacetamide]
experimental_value: 100

====

System: HepG2 cells
Assay: HepG2 toxicity (CellTiter-Glo, parallel to liver stage assay)
Format: cell-based, human
Details: human, 48 h
Human HepG2 assay TOX50 reference

compound: CN(Cc1cccc(F)c1)C(=O)CS(=O)(=O)Cc1c(Cl)cccc1Cl [DDD01077188]
Human HepG2 assay TOX50: >50.0 µM

compound: CCc1ccc(C2c3nc[nH]c3CCN2Cc2nccn2CC)nc1 (stereo not drawn) [DDD01254473]
Human HepG2 assay TOX50: >50.0 µM

compound: Cc1nn(C)c(Oc2ccc(Cl)cc2)c1CN1CCC(CN)C1 (stereo not drawn) [DDD01254274]
Human HepG2 assay TOX50: >50.0 µM

compound: OC1(CN2CCC(Oc3cccc(C(F)(F)F)c3)CC2)CCNC1 (stereo not drawn) [DDD01245291]
Human HepG2 assay TOX50: 21.70 µM

compound: Cc1cccc(NC(=O)c2cccc(OCc3nnnn3C)c2)n1 [DDD01038630]
Human HepG2 assay TOX50: >50.0 µM

compound: CN1CCC(NCC(O)c2cccc(OCc3ccccc3)c2)CC1 (stereo not drawn) [DDD01079164]
Human HepG2 assay TOX50: 38.40 µM

compound: O=S(=O)(NCC1(O)CCOc2ccccc21)c1ccc(Cl)s1 (stereo not drawn) [DDD01028075]
Human HepG2 assay TOX50: >50.0 µM

compound: O=S(=O)(NCC1(O)CCOc2ccccc21)c1ccc(Br)s1 (stereo not drawn) [DDD01035881]
Human HepG2 assay TOX50: >50.0 µM

compound: COc1cccc(-n2ccc3nc(N4CCCC4)ncc3c2=O)c1 [DDD01034957]
Human HepG2 assay TOX50: >50.0 µM

compound: CC(=O)c1c(C)nn(CC(=O)Nc2ccc(Br)cc2)c1C [DDD01027599]
Human HepG2 assay TOX50: 25.00 µM

compound: CCOc1ccc2ccccc2c1CNCC1CCNCC1.Cl.Cl [DDD01255740]
Human HepG2 assay TOX50: >50.0 µM

compound: CCCn1nccc1C(=O)N1CCN(C2CCc3ccccc3C2)CC1 (stereo not drawn) [DDD01251134]
Human HepG2 assay TOX50: >50.0 µM

compound: c1cnnc(N2CCCC2CNc2ncnc3sccc23)c1 (stereo not drawn) [DDD01299704]
Human HepG2 assay TOX50: >50.0 µM

compound: O=S(=O)(NCC1(O)CCOc2ccccc21)c1cccs1 (stereo not drawn) [DDD01035879]
Human HepG2 assay TOX50: >50.0 µM

compound: CC(c1cccs1)N(C)Cc1cnc(-c2ccccn2)nc1 (stereo not drawn) [DDD01246628]
Human HepG2 assay TOX50: 11.30 µM

====

Assay: Stability analysis of DDD599/BPCA (pH buffers, simulated gastric fluid, glutathione)
Assay type: physicochemical
Conditions: SGF = Simulated Gastric Fluid
Procedure: DMPK analyses were performed by the Dundee University Drug Discovery Unit and BPCA/DDD599 stability analysis were undertaken by chemists at GlaxoSmithKline using in-house, standardised approaches. 123 Supplementary Table 1. Stability analysis of DDD599/BPCA pH10 Ox pH10 pH6 Ox pH6 pH4 Ox pH4 SGF Ox SGF GSH Additionally, it was also tested in the presence of glutathione. Green text denoted acceptable 127 stability and red text denotes unacceptable stability under test conditions. […]

compound: O=C(CCl)Nc1ccc(Br)cc1 [BPCA, N-(4-bromophenyl)-2-chloroacetamide]
half-life (days): 25.3

====

IC50 reference
Test system: P. falciparum stage V male gametocytes (male gamete formation)
Assay: P. falciparum dual gamete formation assay (Pf DGFA), male readout (exflagellation), 48 h carry-over format
Assay type: cell-based, Plasmodium falciparum NF54
Settings: Plasmodium falciparum, 48h preincubation/carry-over; read-out: Pf DGFA Male IC50
reported_property: IC50

compound: Cc1ccc(CN(c2cc(C)nc3nc(C(F)(F)F)nn23)C2CC2)cc1
system_name: P. falciparum stage V male gametocytes (male gamete formation)
experimental_value: > 12.5 µM

compound: Cc1ccc(-c2cc(C(=O)NCCC3=CCCCC3)[nH]n2)o1
system_name: P. falciparum stage V male gametocytes (male gamete formation)
experimental_value: 1.82 µM

compound: CC(NCC1CCN(CCO)CC1)c1ccc(OC(F)(F)F)cc1 (stereo not drawn)
system_name: P. falciparum stage V male gametocytes (male gamete formation)
experimental_value: 1.43 µM

compound: OC1(CN2CCC(Oc3cccc(C(F)(F)F)c3)CC2)CCNC1 (stereo not drawn)
system_name: P. falciparum stage V male gametocytes (male gamete formation)
experimental_value: 1.11 µM

compound: CCn1ncc(Br)c1CN(C)S(=O)(=O)c1ccc(C)cc1
system_name: P. falciparum stage V male gametocytes (male gamete formation)
experimental_value: > 12.5 µM

compound: c1cnnc(N2CCCC2CNc2ncnc3sccc23)c1 (stereo not drawn)
system_name: P. falciparum stage V male gametocytes (male gamete formation)
experimental_value: > 12.5 µM

compound: O=S(=O)(NCC1(O)CCOc2ccccc21)c1ccc(Br)s1 (stereo not drawn)
system_name: P. falciparum stage V male gametocytes (male gamete formation)
experimental_value: 0.7 µM

compound: CN1CCC(NCC(O)c2cccc(OCc3ccccc3)c2)CC1 (stereo not drawn)
system_name: P. falciparum stage V male gametocytes (male gamete formation)
experimental_value: 0.92 µM

compound: CNc1cc(C)nc(NC2CCCN(C3Cc4ccccc4C3)C2)n1 (stereo not drawn)
system_name: P. falciparum stage V male gametocytes (male gamete formation)
experimental_value: > 12.5 µM

====

Experiment: Stability analysis of DDD599/BPCA (pH buffers, simulated gastric fluid, glutathione)
Assay type: physicochemical
Details: pH 4; pH4 Ox = Britton Robinson pH4 buffer + 20M% H2O2
Protocol: DMPK analyses were performed by the Dundee University Drug Discovery Unit and BPCA/DDD599 stability analysis were undertaken by chemists at GlaxoSmithKline using in-house, standardised approaches. 123 Supplementary Table 1. Stability analysis of DDD599/BPCA pH10 Ox pH10 pH6 Ox pH6 pH4 Ox pH4 SGF Ox SGF GSH Additionally, it was also tested in the presence of glutathione. Green text denoted acceptable 127 stability and red text denotes unacceptable stability under test conditions. […]

compound: O=C(CCl)Nc1ccc(Br)cc1 [BPCA, N-(4-bromophenyl)-2-chloroacetamide]
half-life: > 41.7 days

====

Tested on: P. falciparum stage V male gametocytes (male gamete formation)
Assay: P. falciparum dual gamete formation assay (Pf DGFA), male readout (exflagellation), 48 h carry-over format
Assay type: cell-based, Plasmodium falciparum NF54
Conditions: Plasmodium falciparum, resynthesized, incubated at room temperature; read-out: IC50 in Pf DGFA after aging

compound_smiles: Cc1ccc(-c2cc(C(=O)NCCC3=CCCCC3)[nH]n2)o1
endpoint_unit: µM
IC50: 15.9

====

Test system: P. falciparum stage V male gametocytes (male gamete formation)
Experiment: P. falciparum dual gamete formation assay (Pf DGFA), male readout (exflagellation), 48 h carry-over format
Assay type: cell-based, Plasmodium falciparum NF54
Conditions: Plasmodium falciparum, 48 h, dose response retest of primary hits, 48 h incubation; read-out: Male IC50
reported_property: log10 of IC50 (log10 of the value in nM)

compound: CCOc1ccc2ccccc2c1CNCC1CCNCC1.Cl.Cl [DDD01255740]
experimental_value: 3.64
//
compound: OC1(CN2CCC(Oc3cccc(C(F)(F)F)c3)CC2)CCNC1 (stereo not shown) [DDD01245291]
experimental_value: 3.48
//
compound: Cc1ccc(-c2cc(C(=O)NCCC3=CCCCC3)[nH]n2)o1 [DDD01255968]
experimental_value: 3.19
//
compound: CC(NCC1CCN(CCO)CC1)c1ccc(OC(F)(F)F)cc1 (stereo not shown) [DDD01073716]
experimental_value: 3.85
//
compound: O=S(=O)(NCC1(O)CCOc2ccccc21)c1ccccc1Br (stereo not shown) [DDD01028076]
experimental_value: 2.20
//
compound: NCC1CCN(C2CCN(c3ccc(-c4ccco4)cc3)CC2)C1 (stereo not shown) [DDD01252361]
experimental_value: 3.05
//
compound: CC(NCC1CCN(CCO)CC1)c1ccc(C(F)(F)F)cc1 (stereo not shown) [DDD01073719]
experimental_value: 3.89
//
compound: COc1ccc(CN2CCc3c(CNC(=O)CC#N)nn(C)c3C2)cc1.O=C(O)C(F)(F)F.O=C(O)C(F)(F)F [DDD01030619]
experimental_value: 3.13
//
compound: CC(C)CN1CCn2nc(CNc3ncnc4[nH]ccc34)cc2C1 [DDD01249504]
experimental_value: 3.36
//
compound: Cc1nn(C)c(Oc2ccc(Cl)cc2)c1CN1CCC(CN)C1 (stereo not shown) [DDD01254274]
experimental_value: 3.61
